Target: human TGF-βRII on cells (SBE-bla HEK 293T cells; A549 cells) (human, UniProt P37173 23-567)
Sequence (P37173 23-567): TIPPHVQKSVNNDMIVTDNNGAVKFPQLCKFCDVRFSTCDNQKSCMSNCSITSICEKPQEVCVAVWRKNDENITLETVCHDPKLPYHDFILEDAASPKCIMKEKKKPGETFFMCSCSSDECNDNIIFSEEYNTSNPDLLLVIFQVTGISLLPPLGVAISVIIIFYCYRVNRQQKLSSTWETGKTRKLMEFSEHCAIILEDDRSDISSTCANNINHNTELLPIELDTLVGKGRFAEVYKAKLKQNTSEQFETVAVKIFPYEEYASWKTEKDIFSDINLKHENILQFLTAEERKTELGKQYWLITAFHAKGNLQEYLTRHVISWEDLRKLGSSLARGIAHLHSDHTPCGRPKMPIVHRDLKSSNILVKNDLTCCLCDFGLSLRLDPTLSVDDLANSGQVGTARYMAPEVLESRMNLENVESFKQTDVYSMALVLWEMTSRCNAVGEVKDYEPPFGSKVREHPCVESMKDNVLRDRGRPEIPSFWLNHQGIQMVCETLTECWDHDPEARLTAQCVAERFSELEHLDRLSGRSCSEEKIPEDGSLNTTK
Test: cell-based or functional assay
value kind: IC50 nM, Mean (SBE-bla HEK 293T cell sensor assay, h2)

>>> measurement("DOM23h-855 (VHH, human VH domain antibody (dAb), naive lead; parent of DOM23h-855-21; not shown: C-terminal FLAG tag from vector pDOM10) VHH: EVQLLESGGGLVQPGGSLRLSCAASGFTFENTSMGWVRQAPGKGLEWVSRIDPKGSHTYYADSVKGRFTISRDNSKNTLYLQMNSLRAEDTAVYYCAKQRELGKSHFDYWGQGTLVTVSS")
"> 4470 nM"
>>> measurement("DOM23h-813 (VHH, not shown: small tags and cut ends) VHH: EVQLLESGGGLVQPGGSLRLSCAASGSTFTDDRMWWVRQAPGKGLEWVSAIQPDGHTTYYADSVKGRFTISRDNSKNTLYLQMNSLRAEDTAVYYCAEQDVKGSSSFDYWGQGTLVTVSS")
"> 9330 nM"
>>> measurement("DOM23h-903 (VHH, not shown: small tags and cut ends) VHH: EVQLLESGGGLVQPGGSLRLSCAASGFTFNDMRMWWVRQAPGKGLEWVSVINADGNRTYYADSVKGRFTISRDNSKNTLYLQMNSLRAEDTAVYYCAKDGLPFDYWGQGTLVTVSS")
"1050 nM"
>>> measurement("DOM23h-842 (VHH, not shown: small tags and cut ends) VHH: EVQLLESGGGLVQPGGSLRLSCAASGFTFDDSEMAWARQAPGKGLEWVSLIRRNGNATYYADSVKGRFTISRDNSKNTLYLQMNSLRAEDTAVYYCAKVTKDRSVLFDYWGQGTLVTVSS")
"2040 nM"
>>> measurement("DOM23h-854 (VHH, not shown: small tags and cut ends) VHH: EVQLLESGGGLVQPGGSLRLSCAASGFTFAQDRMWWVRQAPGKGLEWVSAISGSGGSTYYADSVKGRFTISRDNSKNTLYLQMNSLRAEDTAVYYCAKQDLHGTSSLFDYWGQGTLVTVSS")
"> 9550 nM"
>>> measurement("DOM23h-802 (VHH, not shown: small tags and cut ends) VHH: EVQLLESGGGLVQPGGSLRLSCAASGFTFSEGTMWWVRQAPGKGLEWVSAILAAGSNTYYADSVKGRFTISRDNSKNTLYLQMNSLRAEDTAVYYCAKKRQERDGFDYWGQGTLVTVSS")
"> 11100 nM"
>>> measurement("DOM23h-840 (VHH, not shown: small tags and cut ends) VHH: EVQLLESGGGLVQPGGSLRLSCAASGFTFGDGRMWWVRQAPGKGLEWVSAIEGAGSDTYYADSVKGRFTISRDNSKNTLYLQMNSLRAEDTAVYYCAKQASRNSPFDYWGQGTLVTVSS")
"2920 nM"
>>> measurement("DOM23h-831 (VHH, not shown: small tags and cut ends) VHH: EVQLLESGGGLVQPGGSLRLSCAASGFTFEAYKMTWVRQAPGKGLEWVSYITPSGGQTYYADSVKGRFTISRDNSKNTLYLQMNSLRAEDTAVYYCAKYGSSFDYWGQGTLVTVSS")
"> 3130 nM"
